- Tested on: Hs-578T
- test.summary: Anticancer activity against human Hs-578T cells measured at 48 hrs
- Format: functional
Recorded LC50 (50% lethal concentration) by entry
The figure you give is taken to be in µM; do not add the unit.

smiles.data	unit.symbol	LC50 (50% lethal concentration)
Cc1ccc(-c2nc3nc(-c4ccc(Cl)cc4)nc(N4CCCNCC4)c3o2)cc1	µM	9.02
Cc1ccc(-c2nc(N3CCCNCC3)c3oc(-c4ccc(C)cc4)nc3n2)cc1	µM	80.9

stdin: Indicate the recorded LC50 (50% lethal concentration) value for this compound: c1ccc(-c2nc(N3CCCNCC3)c3oc(-c4ccccc4)nc3n2)cc1
stdout: 9.16

* * *

- Tested on: T47D
- test.summary: Anticancer activity against human T47D cells measured at 48 hrs
- Assay type: functional
reported.endpoint: TGI (µM)
Provide only the numeric value, understood in µM.

Example results:
smiles.data	test.system	value
Cc1ccc(-c2nc3nc(-c4ccccc4)nc(N4CCNCC4)c3o2)cc1	T47D	1.51
c1ccc(-c2nc(N3CCCNCC3)c3oc(-c4ccccc4)nc3n2)cc1	T47D	3.48
Cc1ccc(-c2nc(N3CCCNCC3)c3oc(-c4ccccc4)nc3n2)cc1	T47D	4
Cc1ccc(-c2nc3nc(-c4ccc(F)cc4)nc(N4CCCNCC4)c3o2)cc1	T47D	3.94
Cc1ccc(-c2nc3nc(-c4ccc(Cl)cc4)nc(N4CCCNCC4)c3o2)cc1	T47D	4.14
Cc1ccc(-c2nc(N3CCNCC3)c3oc(-c4ccc(C)cc4)nc3n2)cc1	T47D	37.4

stdin: Quickly give me recorded TGI for Cc1ccc(-c2nc3nc(-c4ccc(F)cc4)nc(N4CCNCC4)c3o2)cc1
stdout: 6.92

stdin: Please give measured TGI of the following entry: c1ccc(-c2nc(N3CCNCC3)c3oc(-c4ccccc4)nc3n2)cc1
stdout: 4.95

stdin: Find the measured TGI of Cc1ccc(-c2nc(N3CCNCC3)c3oc(-c4ccccc4)nc3n2)cc1 and report it.
stdout: 3.83

stdin: Identify the reported TGI for the following entry. Cc1ccc(-c2nc3nc(-c4ccccc4)nc(N4CCCNCC4)c3o2)cc1
stdout: 3.5

* * *

- Test system: BT-549
- test.summary: Anticancer activity against human BT-549 cells measured at 48 hrs
- Assay type: functional
Quick list: GI50 per entry.
Report the figure in nM without appending any unit label.

stdin: Give reported GI50 value for Cc1ccc(-c2nc3nc(-c4ccc(Cl)cc4)nc(N4CCCNCC4)c3o2)cc1
stdout: 1900

stdin: Assign GI50 to the following record: Cc1ccc(-c2nc3nc(-c4ccc(F)cc4)nc(N4CCCNCC4)c3o2)cc1
stdout: 1660

stdin: Return GI50 (reported value) for this compound: c1ccc(-c2nc(N3CCCNCC3)c3nc(-c4ccccc4)oc3n2)cc1
stdout: 1780

stdin: Give a short answer stating reported GI50 for Cc1ccc(-c2nc(N3CCNCC3)c3oc(-c4ccccc4)nc3n2)cc1 .
stdout: 13800

stdin: Quick one: give measured GI50 for Cc1ccc(-c2nc(N3CCCNCC3)c3oc(-c4ccccc4)nc3n2)cc1
stdout: 1620

stdin: Identify measured GI50 corresponding to Cc1ccc(-c2nc3nc(-c4ccccc4)nc(N4CCNCC4)c3o2)cc1
stdout: 1720

* * *

Catalogue of LC50 (50% lethal concentration) readings, one per entry.
- Test system: Hs-578T
- test.summary: Anticancer activity against human Hs-578T cells measured at 48 hrs
- Type: functional
API: value field is a number in µM; no unit string.

Take a look at these entries with their results.
smiles.data	LC50 (50% lethal concentration) [µM]
Cc1ccc(-c2nc(N3CCCNCC3)c3oc(-c4ccccc4)nc3n2)cc1	9.21
c1ccc(-c2nc(N3CCNCC3)c3nc(-c4ccccc4)oc3n2)cc1	9.05
Cc1ccc(-c2nc3nc(-c4ccccc4)nc(N4CCCNCC4)c3o2)cc1	8.85

Now turn to the next compound.
stdin: Name the value of LC50 (50% lethal concentration) reported for c1ccc(-c2nc(N3CCNCC3)c3oc(-c4ccccc4)nc3n2)cc1 when tested on Hs-578T.
stdout: 8.8

* * *

Entries and their measured GI50 follow.
- Test system: BT-549
- test.summary: Anticancer activity against human BT-549 cells measured at 48 hrs
- Format: functional
Give just the numeric value; nM need not be written.

smiles.data	reported.endpoint	unit.symbol	value
Cc1ccc(-c2nc3nc(-c4ccccc4)nc(N4CCCNCC4)c3o2)cc1	GI50	nM	1630
Cc1ccc(-c2nc3nc(-c4ccc(F)cc4)nc(N4CCNCC4)c3o2)cc1	GI50	nM	13600
c1ccc(-c2nc(N3CCNCC3)c3nc(-c4ccccc4)oc3n2)cc1	GI50	nM	1670

API: the following record is the query input.
stdin: Give the measured GI50 for Cc1ccc(-c2nc(N3CCNCC3)c3oc(-c4ccc(C)cc4)nc3n2)cc1
stdout: 1710

* * *

Some compounds, each annotated with its measured GI50.
- Test system: BT-549
- test.summary: Anticancer activity against human BT-549 cells measured at 48 hrs
- Type: functional
Enter your answer as a number in µM; do not include the unit.

smiles.data	GI50, µM
Cc1ccc(-c2nc(N3CCCNCC3)c3oc(-c4ccc(C)cc4)nc3n2)cc1	16.3
Cc1ccc(-c2nc3nc(-c4ccc(Br)cc4)nc(N4CCCNCC4)c3o2)cc1	16
c1ccc(-c2nc(N3CCCNCC3)c3oc(-c4ccccc4)nc3n2)cc1	1.73

stdin: Write down GI50 measured for item c1ccc(-c2nc(N3CCNCC3)c3oc(-c4ccccc4)nc3n2)cc1
stdout: 1.77
